This listing pairs compounds with measured Plant response rating, Johnsongrass.
Tested on: johnsongrass (Sorghum halepense)
protocol: Test C pre-/postemergence greenhouse test
Assay type: in vivo
measurementSetup: Preemergence, 31 g ai/ha; scale 0 to 100

>  <structureSmilesString>
Cc1ccc2ccc(C)c(-c3c(O)c(Cl)nn(C)c3=O)c2c1

>  <dataValue>
40

$$$$
>  <structureSmilesString>
Cc1cc(Cl)c2ccccc2c1-c1c(O)c(Cl)nn(C)c1=O

>  <dataValue>
5

$$$$
>  <structureSmilesString>
Cc1ccc2ccc(F)cc2c1-c1c(O)c(Cl)nn(C)c1=O

>  <dataValue>
10

$$$$

Item Cc1ccc2ccc(Cl)cc2c1-c1c(O)c(Cl)nn(C)c1=O has what recorded Plant response rating, Johnsongrass?
30

----------
Test system: galium (catchweed bedstraw, Galium aparine)
protocol: Test A postemergence greenhouse test
Assay type: in vivo
measurementSetup: 31 g ai/ha
propertyMeasured: Plant response rating (0 to 100 scale)
Would you mind answering with just the numeric figure?

>  <molecule>
Cc1ccc2ccc(F)cc2c1-c1c(O)c(Cl)nn(C)c1=O [Cpd. No. 21]

>  <Plant response rating (0 to 100 scale)>
100

$$$$
>  <molecule>
Cc1cc(Cl)c2ccccc2c1-c1c(O)c(Cl)nn(C)c1=O [Cpd. No. 65]

>  <Plant response rating (0 to 100 scale)>
100

$$$$
>  <molecule>
Cc1ccc2ccc(C)c(-c3c(O)c(Cl)nn(C)c3=O)c2c1 [Cpd. No. 20]

>  <Plant response rating (0 to 100 scale)>
90

$$$$

Let us move to another entry and its Plant response rating (0 to 100 scale).
Item Cc1ccc2ccc(Cl)cc2c1-c1c(O)c(Cl)nn(C)c1=O [Cpd. No. 22] has what recorded Plant response rating (0 to 100 scale)?
100

----------
This listing pairs molecules with measured Plant response rating (0 to 100 scale).
Test system: blackgrass (Alopecurus myosuroides)
protocol: Test A postemergence greenhouse test
Format: in vivo
measurementSetup: 31 g ai/ha
Would you mind answering with just the numeric figure?

// below: answered molecules
>  <molecule>
Cc1ccc2ccc(Cl)cc2c1-c1c(O)c(Cl)nn(C)c1=O [Cpd. No. 22]

>  <Plant response rating (0 to 100 scale)>
70

$$$$
>  <molecule>
Cc1cc(Cl)c2ccccc2c1-c1c(O)c(Cl)nn(C)c1=O [Cpd. No. 65]

>  <Plant response rating (0 to 100 scale)>
90

$$$$
>  <molecule>
Cc1ccc2ccc(F)cc2c1-c1c(O)c(Cl)nn(C)c1=O [Cpd. No. 21]

>  <Plant response rating (0 to 100 scale)>
50

$$$$

Let us move to another entry and its Plant response rating (0 to 100 scale).
Requested read-out Plant response rating (0 to 100 scale), target or system blackgrass (Alopecurus myosuroides), entry Cc1ccc2ccc(C)c(-c3c(O)c(Cl)nn(C)c3=O)c2c1 [Cpd. No. 20]
0

----------
This listing pairs compounds with measured Plant response rating (0 to 100 scale).
System: wheat (Triticum aestivum)
protocol: Test A postemergence greenhouse test
Assay type: in vivo
measurementSetup: 125 g ai/ha
Would you mind answering with just the numeric figure?

>  <structureSmilesString>
Cc1cc(Cl)c2ccccc2c1-c1c(O)c(Cl)nn(C)c1=O

>  <propertyMeasured>
Plant response rating (0 to 100 scale)

>  <dataValue>
90

$$$$

Item Cc1ccc2ccc(F)cc2c1-c1c(O)c(Cl)nn(C)c1=O has what recorded Plant response rating (0 to 100 scale)?
80

Item Cc1ccc2ccc(Cl)cc2c1-c1c(O)c(Cl)nn(C)c1=O has what recorded Plant response rating (0 to 100 scale)?
100

Item Cc1ccc2ccc(C)c(-c3c(O)c(Cl)nn(C)c3=O)c2c1 has what recorded Plant response rating (0 to 100 scale)?
30
